Entries and their EC50
System Tested: TEAD2 YAP50-100 (Homo sapiens (Human), UniProt Q15562)
Sequence (Q15562 217-447): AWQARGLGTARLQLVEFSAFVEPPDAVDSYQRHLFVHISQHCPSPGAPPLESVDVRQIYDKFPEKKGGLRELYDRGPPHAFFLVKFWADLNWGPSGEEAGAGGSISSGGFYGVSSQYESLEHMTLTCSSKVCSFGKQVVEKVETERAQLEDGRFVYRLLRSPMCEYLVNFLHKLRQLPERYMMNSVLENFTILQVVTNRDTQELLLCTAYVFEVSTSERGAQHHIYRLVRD
Assay Name: TEAD-YAP protein-protein interaction HTRF assay
Assay Conditions: TEAD2 YAP50-100 HTRF combined EC50, 30 mins incubation with compound

- Molecule: "C=C(CNc1cc2c(c(-c3ccc(C(C)C)cc3)c1)OCC2)C(N)=O [Compound 2]"
  Unit Abbreviation: "µM"
  EC50: 0.07
- Molecule: "C=C(CNc1cc(-c2ccc(C(C)C)cc2)c2c(c1CO)CCO2)C(=O)NO [Compound 14]"
  Unit Abbreviation: "µM"
  EC50: 0.07
- Molecule: "C=C(CNc1cc(-c2ccc(C(C)C(F)(F)F)cc2)c2c(c1C#N)CCO2)C(=O)O (single isomer, unassigned) [Enantiomer D from Example 16]"
  Unit Abbreviation: "µM"
  EC50: 0.07
- Molecule: "C=C(CNc1cc(-c2ccc(C(C)C)cc2)c2c(c1C#N)CCO2)C(C)=O [Compound 11]"
  Unit Abbreviation: "µM"
  EC50: 0.13
